# system: Cholinesterase (Equus caballus)
# Sequence (P81908 whole entry): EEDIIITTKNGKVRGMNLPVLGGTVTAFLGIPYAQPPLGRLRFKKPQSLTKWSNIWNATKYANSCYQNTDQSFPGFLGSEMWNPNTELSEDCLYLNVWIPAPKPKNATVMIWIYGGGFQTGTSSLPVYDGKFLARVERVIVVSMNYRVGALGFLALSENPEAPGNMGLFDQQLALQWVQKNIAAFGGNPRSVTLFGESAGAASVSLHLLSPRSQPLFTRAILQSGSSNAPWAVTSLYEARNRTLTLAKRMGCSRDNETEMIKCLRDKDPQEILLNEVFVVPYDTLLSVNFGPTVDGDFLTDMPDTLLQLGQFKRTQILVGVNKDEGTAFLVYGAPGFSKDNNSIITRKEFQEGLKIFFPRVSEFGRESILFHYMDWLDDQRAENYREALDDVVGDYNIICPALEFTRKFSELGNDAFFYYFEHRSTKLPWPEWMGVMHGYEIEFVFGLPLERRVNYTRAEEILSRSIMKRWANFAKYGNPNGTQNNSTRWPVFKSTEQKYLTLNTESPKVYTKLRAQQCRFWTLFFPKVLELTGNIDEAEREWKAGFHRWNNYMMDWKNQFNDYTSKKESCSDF
# procedure_summary: Non-competitive inhibition of equine serum BuChE using S-butyrylthiocholine iodide as substrate by Lineweaver-Burk reciprocal plot analysis
value_kind: pKi
One number for each entry, as −log10 of the molar value.

// field: pKi; key: O=C1c2ccccc2-[n+]2ccc3c([nH]c4ccccc43)c21 [FASCAPLYSIN] ; value = 4.31

---

# system: Acetylcholinesterase (Electrophorus electricus)
# Sequence (O42275 whole entry): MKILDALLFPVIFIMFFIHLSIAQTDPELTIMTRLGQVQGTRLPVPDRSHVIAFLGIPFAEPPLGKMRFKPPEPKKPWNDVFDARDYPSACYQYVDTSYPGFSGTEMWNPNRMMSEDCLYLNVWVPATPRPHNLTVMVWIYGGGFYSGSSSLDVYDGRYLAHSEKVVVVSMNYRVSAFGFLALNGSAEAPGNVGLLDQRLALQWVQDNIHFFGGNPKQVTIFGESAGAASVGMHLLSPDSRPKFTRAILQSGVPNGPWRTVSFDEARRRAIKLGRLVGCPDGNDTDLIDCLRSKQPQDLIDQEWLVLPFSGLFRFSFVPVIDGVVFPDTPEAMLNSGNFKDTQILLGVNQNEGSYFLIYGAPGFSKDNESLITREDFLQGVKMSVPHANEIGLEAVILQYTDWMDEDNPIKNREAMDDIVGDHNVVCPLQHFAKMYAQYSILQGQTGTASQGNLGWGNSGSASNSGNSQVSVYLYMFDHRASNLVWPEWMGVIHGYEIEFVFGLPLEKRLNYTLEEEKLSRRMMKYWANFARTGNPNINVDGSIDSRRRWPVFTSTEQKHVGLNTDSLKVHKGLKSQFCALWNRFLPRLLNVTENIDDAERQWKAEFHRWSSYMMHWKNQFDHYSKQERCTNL
value_kind: IC50 (nM)
Answers are plain numbers, in nM.

Param item: O=C1c2ccccc2-[n+]2ccc3c([nH]c4ccccc43)c21 [FASCAPLYSIN] ; param system: Acetylcholinesterase (Electrophorus electricus); output IC50: 1490

---

# system: Cyclin-dependent kinase 5/CDK5 activator 1 (Homo sapiens, UniProt Q00535)
# Sequence (Q00535 whole entry): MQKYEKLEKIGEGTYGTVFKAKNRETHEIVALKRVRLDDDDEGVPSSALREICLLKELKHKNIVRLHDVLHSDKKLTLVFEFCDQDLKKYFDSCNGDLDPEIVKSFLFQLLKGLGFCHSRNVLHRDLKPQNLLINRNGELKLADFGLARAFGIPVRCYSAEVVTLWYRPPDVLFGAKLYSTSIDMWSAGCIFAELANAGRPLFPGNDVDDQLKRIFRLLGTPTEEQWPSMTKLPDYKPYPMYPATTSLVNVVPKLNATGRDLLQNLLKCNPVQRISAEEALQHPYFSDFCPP
# Sequence (Q15078 whole entry, further chain): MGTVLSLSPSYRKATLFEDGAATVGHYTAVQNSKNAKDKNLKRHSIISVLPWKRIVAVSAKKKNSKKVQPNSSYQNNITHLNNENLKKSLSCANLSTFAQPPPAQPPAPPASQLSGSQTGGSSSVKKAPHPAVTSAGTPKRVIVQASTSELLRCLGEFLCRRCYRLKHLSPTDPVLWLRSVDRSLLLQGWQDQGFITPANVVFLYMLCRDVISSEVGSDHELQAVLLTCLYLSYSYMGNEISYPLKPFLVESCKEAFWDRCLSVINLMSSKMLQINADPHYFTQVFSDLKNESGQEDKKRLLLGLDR
# procedure_summary: Inhibition of CDK5/p-35 (unknown origin)
value_kind: pIC50
One number for each entry, as −log10 of the molar value.

// field: pIC50; key: O=C1c2ccccc2-[n+]2ccc3c([nH]c4ccccc43)c21 [FASCAPLYSIN] ; value = 4.70

---

# system: CDK6/cyclin D2 (Homo sapiens, UniProt P30279+Q00534)
# Sequence (Q00534 whole entry): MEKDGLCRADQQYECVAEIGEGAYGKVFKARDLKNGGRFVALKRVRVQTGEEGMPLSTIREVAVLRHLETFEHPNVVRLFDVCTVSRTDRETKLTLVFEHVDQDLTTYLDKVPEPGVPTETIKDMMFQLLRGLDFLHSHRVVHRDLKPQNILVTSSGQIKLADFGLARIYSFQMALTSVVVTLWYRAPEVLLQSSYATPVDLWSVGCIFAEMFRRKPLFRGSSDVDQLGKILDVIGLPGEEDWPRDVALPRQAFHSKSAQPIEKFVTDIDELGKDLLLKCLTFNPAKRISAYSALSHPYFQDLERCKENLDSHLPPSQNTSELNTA
# Sequence (P30279 whole entry): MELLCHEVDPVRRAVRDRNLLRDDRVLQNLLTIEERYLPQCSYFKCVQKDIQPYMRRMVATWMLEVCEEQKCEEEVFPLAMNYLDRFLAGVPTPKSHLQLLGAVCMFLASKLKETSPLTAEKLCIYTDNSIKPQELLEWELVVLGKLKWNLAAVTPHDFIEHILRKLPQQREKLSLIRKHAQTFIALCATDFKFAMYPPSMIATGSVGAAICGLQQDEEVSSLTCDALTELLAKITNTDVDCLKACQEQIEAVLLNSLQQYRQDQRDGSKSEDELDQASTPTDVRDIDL
# procedure_summary: Inhibition of CDK6/cyclin-D2 (unknown origin)
pIC50: −log10 of the molar value.
value_kind: pIC50

// field: pIC50; key: O=C1c2ccccc2-[n+]2ccc3c([nH]c4ccccc43)c21 [FASCAPLYSIN] ; value = < 4.30

---

# system: Cyclin-dependent kinase 1/cyclin B1 (Homo sapiens, UniProt P06493)
# Sequence (P06493 whole entry): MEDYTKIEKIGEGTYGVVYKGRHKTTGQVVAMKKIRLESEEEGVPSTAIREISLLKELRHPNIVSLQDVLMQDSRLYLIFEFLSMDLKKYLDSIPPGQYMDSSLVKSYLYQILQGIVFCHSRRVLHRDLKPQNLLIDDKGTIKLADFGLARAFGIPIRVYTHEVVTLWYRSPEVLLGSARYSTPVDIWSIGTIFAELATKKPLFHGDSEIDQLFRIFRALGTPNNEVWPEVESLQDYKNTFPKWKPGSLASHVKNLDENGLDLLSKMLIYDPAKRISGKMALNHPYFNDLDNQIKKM
# Sequence (P14635 whole entry, further chain): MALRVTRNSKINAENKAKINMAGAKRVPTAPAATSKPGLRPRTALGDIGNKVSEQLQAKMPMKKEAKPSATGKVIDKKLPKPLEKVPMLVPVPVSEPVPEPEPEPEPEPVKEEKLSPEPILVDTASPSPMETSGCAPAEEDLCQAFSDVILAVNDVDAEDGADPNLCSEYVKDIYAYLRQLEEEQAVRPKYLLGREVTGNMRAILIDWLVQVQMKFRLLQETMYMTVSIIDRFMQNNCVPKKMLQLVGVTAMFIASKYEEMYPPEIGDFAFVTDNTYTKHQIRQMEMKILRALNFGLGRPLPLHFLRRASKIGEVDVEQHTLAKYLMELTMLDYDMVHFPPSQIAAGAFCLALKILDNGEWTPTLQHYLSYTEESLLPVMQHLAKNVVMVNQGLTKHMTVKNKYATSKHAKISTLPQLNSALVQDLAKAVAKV
# procedure_summary: Inhibition of CDK1/cyclin-B (unknown origin)
value_kind: IC50

// field: IC50; key: O=C1c2ccccc2-[n+]2ccc3c([nH]c4ccccc43)c21 ; value = > 100 µM

---

# system: UniProt O42275
value_kind: Ki (nM)
One number for each entry, in nM.

// field: Ki; key: O=C1c2ccccc2-[n+]2ccc3c([nH]c4ccccc43)c21 [FASCAPLYSIN] ; value = 2280

---

# system: Cyclin-dependent kinase 4/cyclin D2 (Homo sapiens, UniProt P11802+P30279)
# Sequence (P11802 whole entry): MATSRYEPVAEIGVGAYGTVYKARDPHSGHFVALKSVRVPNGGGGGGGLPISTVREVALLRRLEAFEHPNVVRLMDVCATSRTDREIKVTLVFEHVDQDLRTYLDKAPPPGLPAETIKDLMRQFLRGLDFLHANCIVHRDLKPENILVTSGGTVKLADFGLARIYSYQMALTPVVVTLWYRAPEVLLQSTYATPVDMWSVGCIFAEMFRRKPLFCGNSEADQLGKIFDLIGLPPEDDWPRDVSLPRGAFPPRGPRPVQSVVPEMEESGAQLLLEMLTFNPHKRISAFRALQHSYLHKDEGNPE
# Sequence (P30279 whole entry): as the sequence (P30279 whole entry) above
# procedure_summary: Inhibition of CDK4/cyclin-D2 (unknown origin)
pIC50: −log10 of the molar value.
value_kind: pIC50

// field: pIC50; key: O=C1c2ccccc2-[n+]2ccc3c([nH]c4ccccc43)c21 [FASCAPLYSIN] ; value = < 4.00
